Listed here: items and their measured normalized RNA/DNA level with ligand (log10).
B1: library; a variant is named by its letters at N, in order (parent)
chain: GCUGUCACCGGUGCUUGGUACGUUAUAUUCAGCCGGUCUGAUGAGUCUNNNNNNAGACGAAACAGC

variants of: B1; experiment: normalized RNA/DNA level with ligand (relative to sTRSVctl = 100) (log10 (% of sTRSVctl)); HEK293T overexpressing SLC46A1; ligand concentration (+) RNA-Seq: 6 mM; higher = less ribozyme self-cleavage, higher mRNA level; settings: with (6R,S)-folinic acid; ligand present: yes
Answer with a number only.

- Mutation code: "AUUGCU"
  Observed value: 1.98

# input variant: `CAGAAA` ; wanted: its normalized RNA/DNA level with ligand (log10)
1.97

# input variant: `AAACGG` ; wanted: its normalized RNA/DNA level with ligand (log10)
2.01

# input variant: `CCCUAU` ; wanted: its normalized RNA/DNA level with ligand (log10)
2.05

# input variant: `UAUGAC` ; wanted: its normalized RNA/DNA level with ligand (log10)
2

# input variant: `AGCUCU` ; wanted: its normalized RNA/DNA level with ligand (log10)
2.06

# input variant: `UUACAG` ; wanted: its normalized RNA/DNA level with ligand (log10)
1.99

# input variant: `CCUUUA` ; wanted: its normalized RNA/DNA level with ligand (log10)
2.06

# input variant: `AGACUC` ; wanted: its normalized RNA/DNA level with ligand (log10)
2.05

# input variant: `GGAUAA` ; wanted: its normalized RNA/DNA level with ligand (log10)
2.03
